Target: UniProt P14550
Sequence (P14550 whole entry): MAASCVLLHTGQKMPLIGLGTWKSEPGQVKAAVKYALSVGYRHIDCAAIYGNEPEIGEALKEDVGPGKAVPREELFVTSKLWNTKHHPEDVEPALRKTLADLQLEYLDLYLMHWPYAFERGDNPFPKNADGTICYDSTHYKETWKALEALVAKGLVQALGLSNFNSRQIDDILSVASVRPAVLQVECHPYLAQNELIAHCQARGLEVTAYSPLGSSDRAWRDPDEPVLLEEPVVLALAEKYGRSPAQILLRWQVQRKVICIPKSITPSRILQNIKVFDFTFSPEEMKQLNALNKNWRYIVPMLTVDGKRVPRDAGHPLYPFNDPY
Assay: Inhibition of human recombinant AKR1A1 expressed in Escherichia coli BL21 cells using D-glucuronate as substrate by spectrophotometry
propertyLabel: pIC50
Keep it numeric: pIC50 is minus log10 of the concentration in mol/L.

Tell me the measured pIC50 of "O=C(O)Cn1c2c(c3c(Cl)cc(Cl)cc31)CCN(Cc1ccccc1)C2=S" , please.
5.00

Tell me the measured pIC50 of "CC(C)c1ccc2c(c1)c1c(n2CC(=O)O)C(=S)N(Cc2ccccc2)CC1" , please.
4.80

Tell me the measured pIC50 of "O=C(O)Cn1c2c(c3ccc(Cl)cc31)CCN(Cc1ccccc1)C2=S" , please.
4.68

Reference source: ChEMBL document CHEMBL1944621
